# test system: A2 receptors from rat striatal membranes (Rattus norvegicus, UniProt P30543)
# Construct: Rat cerebral cortical and striatal membranes were prepared; from tissue; host or cells: rat striatal membranes
# Sequence (P30543 whole entry): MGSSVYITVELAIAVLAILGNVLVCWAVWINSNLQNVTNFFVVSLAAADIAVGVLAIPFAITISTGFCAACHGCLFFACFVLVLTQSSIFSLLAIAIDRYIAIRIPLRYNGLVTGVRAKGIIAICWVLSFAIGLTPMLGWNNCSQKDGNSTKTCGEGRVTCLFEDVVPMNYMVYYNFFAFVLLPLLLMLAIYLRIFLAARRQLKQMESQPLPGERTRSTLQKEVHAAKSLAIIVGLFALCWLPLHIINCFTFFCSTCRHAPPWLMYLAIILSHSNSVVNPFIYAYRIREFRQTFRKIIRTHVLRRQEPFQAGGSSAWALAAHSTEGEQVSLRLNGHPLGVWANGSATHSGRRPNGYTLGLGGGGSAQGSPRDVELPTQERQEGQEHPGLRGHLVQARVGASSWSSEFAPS
# protocol text: Radioligand binding at A2 (A2a) receptors, displacement of [3H]CGS 21680 (or [3H]NECA with 50 nM CPA) from rat striatal membranes
# condition notes: Table 4, [3H]CGS 21680, rat striatal membranes; read-out: Ki (A2)
In this section we review reported pKi values for a set of molecules.
Answer as the number alone; pKi is minus log10 of concentration in mol/L.

CCCCn1c(=O)n(Cc2ccccc2)c(=O)c2c1ncn2[C@@H]1O[C@H](CO)[C@@H](O)[C@H]1O    5.06

Kindly consider the entry below.
// query Give its pKi value. Item: CCCCn1c(=O)c2c(ncn2[C@@H]2O[C@H](CO)[C@@H](O)[C@H]2O)n(Cc2ccccc2)c1=O
// result 5.35

###

# test system: A1 receptors from rat brain membranes (Rattus norvegicus)
# Construct: Rat cerebral cortical and striatal membranes were prepared; from tissue; host or cells: rat brain (cerebral cortical) membranes
# Sequence (P25099 whole entry): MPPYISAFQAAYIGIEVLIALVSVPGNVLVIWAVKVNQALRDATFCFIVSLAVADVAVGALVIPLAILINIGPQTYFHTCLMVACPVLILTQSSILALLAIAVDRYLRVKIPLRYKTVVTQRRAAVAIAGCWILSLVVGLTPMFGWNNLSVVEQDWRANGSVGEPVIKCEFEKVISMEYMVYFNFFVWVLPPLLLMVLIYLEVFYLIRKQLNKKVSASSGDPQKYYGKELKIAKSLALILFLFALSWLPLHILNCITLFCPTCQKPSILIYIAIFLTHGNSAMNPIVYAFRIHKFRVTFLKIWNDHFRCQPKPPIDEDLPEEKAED
# protocol text: biochemical
# Format: binding
# condition notes: Table 2, [3H]PIA, rat brain membranes; read-out: Ki (A1)
quantity kind: Ki (µM)
State just the number; it will be interpreted in µM.

// below: answered molecules
Nc1nc(NCc2cccc(I)c2)c2ncn([C@@H]3O[C@H](CO)[C@@H](O)[C@H]3O)c2n1 [Example 43]    0.0638
CNC(=O)[C@H]1O[C@@H](n2cnc3c(NCc4cccc(I)c4)nc(SC)nc32)[C@H](O)[C@@H]1O [Example 46]    2.14
CCNC(=O)[C@H]1O[C@@H](n2cnc3c(N)nc(NCCc4ccc(CCC(=O)NCCN)cc4)nc32)[C@H](O)[C@@H]1O [APEC, reference compound]    0.4

Turning now to a further molecule:
// query Data request, read-out Ki, for CNC(=O)[C@H]1O[C@@H](n2cnc3c(NCc4cccc(I)c4)nc(NC)nc32)[C@H](O)[C@@H]1O [Example 45]
// result 4.89

###

# test system: rat A3 receptors (Rattus norvegicus)
# Construct: RBL-2H3 rat mast cells (endogenous) also named
# Sequence (P28647 whole entry): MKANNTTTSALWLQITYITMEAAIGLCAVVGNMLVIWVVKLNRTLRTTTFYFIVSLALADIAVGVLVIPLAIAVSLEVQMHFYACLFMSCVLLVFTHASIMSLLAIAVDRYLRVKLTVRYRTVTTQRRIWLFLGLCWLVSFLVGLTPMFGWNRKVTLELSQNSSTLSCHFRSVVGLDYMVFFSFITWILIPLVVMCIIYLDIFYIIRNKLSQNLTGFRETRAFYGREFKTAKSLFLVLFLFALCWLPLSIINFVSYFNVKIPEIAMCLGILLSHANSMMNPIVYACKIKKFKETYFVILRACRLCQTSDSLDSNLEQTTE
# protocol text: Irreversible inhibition of radioligand binding at rat A3 receptors after preincubation
quantity kind: pIC50
The value called pIC50 is obtained by taking minus log10 of the concentration in mol/L.

// query For the compound shown here, CNC(=O)[C@H]1O[C@@H](n2cnc3c(NCc4cccc(N=C=S)c4)ncnc32)[C@H](O)[C@@H]1O , give the reported pIC50.
// result 7.30

###

# test system: A2 receptors from rat striatal membranes (Rattus norvegicus)
# Construct: Rat cerebral cortical and striatal membranes were prepared; from tissue; host or cells: rat striatal membranes
# protocol text: Radioligand binding at A2 (A2a) receptors, displacement of [3H]CGS 21680 (or [3H]NECA with 50 nM CPA) from rat striatal membranes
# condition notes: read-out: A2 percent displacement
Mark False for inhibition at 100 µM values under 10%, and True for everything at or above.

Known results for molecules:
Cn1c(=O)c2[nH]c(Cl)nc2n(C)c1=O [Compound 132, 8-chloroT, reference compound]    True
CCCn1c(=O)c2c(ncn2[C@@H]2O[C@H](CO)[C@@H](O)[C@H]2O)n(CCC)c1=O [Compound 118, reference compound]    True
Nc1ccn([C@@H]2O[C@H](CO)[C@@H](O)[C@H]2O)c(=O)n1 [Compound 84, cytidine, reference compound]    True
NCCNC(=O)[C@H]1O[C@@H](n2cnc3c(N)ncnc32)[C@H](O)[C@@H]1O    True
O=c1ccn([C@@H]2O[C@H](CO)[C@@H](O)[C@H]2O)c(=O)[nH]1 [Compound 82, uridine, reference compound]    False

// query Please indicate if the recorded inhibition at 100 µM for Cc1cn([C@H]2C[C@H](O)[C@@H](CO)O2)c(=O)[nH]c1=O [Compound 83, thymidine, reference compound] meets or exceeds 10%.
// result False
